- assay.target: 17β-HSD10 (Homo sapiens, UniProt Q99714)
- Construct: Histev (histidine tag with TEV site) (N, cleaved yes)
- protocol: 17β-HSD10 (ABAD) enzyme inhibition assay, NADH oxidation read at 340 nm (primary screen and dose response)
- conditions.used: recombinant 17βHSD10 enzyme assay
pEC50: −log10 of the molar value.
parameter.measured: pEC50

>>> df
                                   molecule  parameter_measured  recorded_result
0  CC(C)CN(C(=O)c1cccc2ccccc12)c1cccc(N(C)Cc2cnc[nH]2)c1               pEC50             5.55
1  CC(C)CN(C(=O)c1ccccc1F)c1cccc(N(C)Cc2c[nH]c(C3CC3)n2)c1               pEC50             5.08
2  COc1cc(-c2ccccc2[C@@H]2CCCN2C(=O)c2sccc2Cl)ccc1C (racemic)               pEC50             6.40

P = Cc1ccsc1C(=O)N1CCC[C@@H]1c1ccccc1-c1cn[nH]c1
Q = O=C(c1sccc1Cl)N1CCC[C@H]1c1ccccc1-c1cccc(O)c1F (single isomer, unassigned) [ESC1002840]
Ask: Looking only at measured pEC50, which entry is lower, P or Q ? State your choice using its label.
Reply: P

* * *

- assay.target: 17β-HSD10 (Homo sapiens)
- Construct: Histev (histidine tag with TEV site) (N, cleaved yes)
- protocol: 17β-HSD10 (ABAD) enzyme inhibition assay, NADH oxidation read at 340 nm (primary screen and dose response)
- conditions.used: recombinant 17βHSD10 enzyme assay
parameter.measured: EC50 (nM)

                                   compound              assay_target  recorded_result
0  Cc1ccccc1-c1ccccc1[C@@H]1CCCN1C(=O)c1sccc1C [ESC1002323]  17β-HSD10 (Homo sapiens)              468
1  Cc1ccsc1C(=O)N1CCC[C@@H]1c1ccccc1-c1ccccc1 [ESC1002462]  17β-HSD10 (Homo sapiens)              234
2  COc1ccc(C(=O)N(CC(C)C)c2cccc(N(C)Cc3cnc[nH]3)c2)cc1 [ESC1002182]  17β-HSD10 (Homo sapiens)              331

I = O=C(c1sccc1Cl)N1CCC[C@H]1c1ccccc1-c1cc(O)ccc1F (single isomer, unassigned) [ESC1002842]
II = CN(Cc1c[nH]cn1)c1cccc(N(CC(C)(C)C)C(=O)c2ccccc2F)c1 [ESC1002517]
Ask: Looking only at measured EC50, which entry is lower, I or II ? State your choice using its label.
Reply: I

* * *

- assay.target: 17β-HSD10 (Homo sapiens, UniProt Q99714)
- Construct: Histev (histidine tag with TEV site) (N, cleaved yes); made in house; host or cells: E. coli BL21-CodonPlus
- Sequence (Q99714 1-261): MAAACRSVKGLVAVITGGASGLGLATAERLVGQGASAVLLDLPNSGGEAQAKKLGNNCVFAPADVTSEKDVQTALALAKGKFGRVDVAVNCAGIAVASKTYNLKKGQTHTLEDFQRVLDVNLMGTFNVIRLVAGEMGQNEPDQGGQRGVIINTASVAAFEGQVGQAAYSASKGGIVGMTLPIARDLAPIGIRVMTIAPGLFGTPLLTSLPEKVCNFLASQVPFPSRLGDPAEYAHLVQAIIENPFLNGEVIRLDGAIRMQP
- protocol: 17β-HSD10 (ABAD) enzyme inhibition assay, NADH oxidation read at 340 nm (primary screen and dose response)
- Assay type: biochemical
- conditions.used: recombinant 17βHSD10 enzyme assay, curve fit
- Experimental: Cell pellets of E. coli BL21-CodonPlus cells containing Histev-17β-HSD10 protein were re-suspended for 30 min, 4° C., in lysis buffer (20 mM NaH2PO4, 30 mM imidazole, 500 mM NaCl, 10% (v/v) glycerol, pH 7.5) with the addition of complete ethylenediaminetetraacetic acid (EDTA)-free protease inhibitor tablets (Roche), lysozyme (1 mg/mL), deoxyribonuclease (DNase) (20 μg/mL) and Triton X-100 (0.1% (v/v)). […]
parameter.measured: Min. Fit

Some solved cases for reference:
In [3]: df
Out[3]:
                                   compound  recorded_result
0  COc1ccc(-c2ccccc2[C@@H]2CCCN2C(=O)c2sccc2Cl)cc1OC (racemic) [ESC1002663]               −8
1  COc1ccc(C(=O)N(CC(C)C)c2cccc(N(C)Cc3cnc[nH]3)c2)cc1 [ESC1002182]                0
2  COc1cccc(-c2ccccc2[C@@H]2CCCN2C(=O)c2[nH]ncc2Cl)c1 (single isomer, unassigned) [ESC1002757]              −10
3  CCCn1c(C(N)=O)cc2cc(-c3cn[nH]c3)ccc21 [ESC1002019]                2

a = Cc1ccsc1C(=O)N1CCC[C@@H]1c1ccccc1-c1c[nH]nc1C(F)(F)F [ESC1002465]
b = COc1cc(-c2ccccc2[C@@H]2CCCN2C(=O)c2sccc2Cl)ccn1 (racemic) [ESC1002665]
Ask: Which is greater in Min. Fit, the first item a or the second item b ? State your choice using its label.
Reply: a
